# Tested on: HEK293
# ASSAY NAME: Cytotoxic Profiling of Annotated Libraries Using Quantitative High-Throughput Screening (AID 1296008); note: % is set by controls: 0 for no effect and ±100 for the full control effect; nearly all actives have a fitted effect of over 60% in size
# MEASUREMENT SETUP: Five cell lines viability, CellTiter-Glo ATP luminescence, 48-72 h; hits give low values
# Procedure: Cell-based phenotypic screening is a commonly used approach to discover biological pathways, novel drug targets, chemical probes and high-quality hit-to-lead molecules. […] A pintool (Kalypsys) was used to transfer 23 nL of compound solution to the 1536-well assay plates. […] Plates were left at room temperature for 10 min before imaging the ATP-coupled luminescence using a ViewLux microplate imager (PerkinElmer, Waltham, MA).
Inconclusive results are not listed.
Let's look at some compounds and their measured max response.
Output spec: scalar in %, unitless text.

Here's what some known entries look like.
- COMPOUND: "CC(=O)NC(=O)c1ccccc1O"
  max response [%]: -1.84
- COMPOUND: "Cc1nc(-c2ccc(Cl)cc2)oc1COC(C)(C)C(=O)O"
  max response [%]: 4.06
- COMPOUND: "NCCNc1cccc2ccccc12"
  max response [%]: -7.17
- COMPOUND: "CCOc1ccc(NC(C)=O)cc1"
  max response [%]: -5.15
- COMPOUND: "OC[C@H]1O[C@@H](Oc2ccc(O)cc2)[C@H](O)[C@@H](O)[C@@H]1O"
  max response [%]: -74.1

Sample Cc1ccccc1OCC(O)CO (stereo unspecified) ; max response observed: -6.66

Form field max response, entry NCCNC(=O)c1ccc(Cl)cn1 : -1.7

GET /value?item= CC1=C(C(=O)O)N2C(=O)[C@@H](NC(=O)[C@H](N)c3ccccc3)[C@H]2SC1 &field=max response returns -2.48

Taken from PubChem BioAssay (NCATS).
